- test.target: Sigma-2 receptor
- assay: Sigma-2 receptor competitive radioligand binding assay
- condition.description: read-out: Sigma-2 Receptor Affinity, Ki
quantity.name: Ki (nM)

The examples below pair each entry with its known result.
> print(dat)
                                 cpd.smiles  quantitative.readout
1  CN(C)C(=O)c1cccc2c1CN(C(C)(C)CCc1ccc(O)c(OC(F)(F)F)c1)C2                    95
2  COc1cc2c(cc1OC)CN([C@@H](C)CCc1ccc(Cl)c(Cl)c1)C2                  0.67

1. CC(C)(CCc1ccc(O)c(OC(F)(F)F)c1)N1Cc2cccc(C(=O)O)c2C1
2. COc1cccc(CCC(C)(C)N2Cc3ccc(S(C)(=O)=O)cc3C2)c1
3. CC(C)(CCc1ccc(O)c(OC(F)(F)F)c1)N1Cc2cccc(S(C)(=O)=O)c2C1
4. C[C@H](CCc1ccc(Cl)c(Cl)c1)N1Cc2cc3c(cc2C1)OCO3
5. COc1cc(CC[C@@H](C)N2Cc3cccc(S(C)(=O)=O)c3C2)ccc1O
Inquiry: Put the items in order so that reported Ki rises from first to last. Answer with the labels in sequence, matching the requested order.
Reply text: 2, 4, 3, 5, 1
(2: 1.4 nM, 4: 5 nM, 3: 8.1 nM, 5: 190 nM, 1: 10000 nM)

###

- assay: Mouse liver microsome (MLM) stability
- Assay type: in vitro ADME
- condition.description: mouse, microsomes
quantity.name: Mouse liver microsomes, MLM t½ (min)

The examples below pair each entry with its known result.
> print(dat)
                                   compound  measurement.unit  quantitative.readout
1  C[C@H](CCc1ccc(O)c(OC(C)(C)C)c1)N1Cc2cccc(F)c2C1 [60B]               min                     8
2      CC(C)(CCc1ccc(F)cc1)N1Cc2ccc(F)cc2C1               min                     9
3  CC(C)(C)Oc1cc(CCC(C)(C)N2Cc3cccc(C(=O)O)c3C2)ccc1O               min                   508
4  CC(C)(C)Oc1cc(CCC(C)(C)N2Cc3c(F)ccc(F)c3C2)ccc1O               min                    21
5  C[C@H](CCc1ccc(Cl)c(Cl)c1)N1Cc2ccc(F)cc2C1.Cl               min                    13
6  C[C@H](CCc1ccc(Cl)c(Cl)c1)N1Cc2cccc(F)c2C1               min                    12

a. COc1cc(CCC(C)(C)N2Cc3cccc(S(C)(=O)=O)c3C2)ccc1O
b. COc1cc(CCC(C)(C)N2Cc3cccc(C(=O)NCCO)c3C2)ccc1O
Inquiry: Kindly identify the item with the lower Mouse liver microsomes, MLM t½ figure among these two: a and b Response format: the label of the selected entry.
Reply text: a
(a: 52 min, b: 144 min)

###

- assay: Mouse liver microsome (MLM) stability
- Format: in vitro ADME
- condition.description: mouse, microsomes
quantity.name: Mouse liver microsomes, MLM t½ (min)

The examples below pair each entry with its known result.
> print(dat)
                                 cpd.smiles                   quantity.name  quantitative.readout
1  CC(=O)N1CCN(C(=O)c2cccc3c2CN(C(C)(C)CCc2ccc(O)c(OCC(C)C)c2)C3)CC1  Mouse liver microsomes, MLM t½                     7
2  CC(C)(CCc1ccc(O)c(OC(F)(F)F)c1)N1Cc2cccc(C(=O)N3CCOCC3)c2C1  Mouse liver microsomes, MLM t½                    14

P. CC(C)(CCc1ccc(O)c(OC(F)(F)F)c1)N1Cc2cccc(S(C)(=O)=O)c2C1
Q. COc1cc(CC[C@@H](C)N2Cc3ccc(S(C)(=O)=O)cc3C2)ccc1O
Inquiry: Lab note: record which item had the higher Mouse liver microsomes, MLM t½, P or Q . Response format: the label of the selected entry.
Reply text: Q
(Q: 152 min, P: 39 min)
